- targetUnderTest: HSP90/Cyclin-dependent kinase 4 (Mus musculus, UniProt P07901+P11499+P30285)
- Sequence (P30285 whole entry, other chains not shown): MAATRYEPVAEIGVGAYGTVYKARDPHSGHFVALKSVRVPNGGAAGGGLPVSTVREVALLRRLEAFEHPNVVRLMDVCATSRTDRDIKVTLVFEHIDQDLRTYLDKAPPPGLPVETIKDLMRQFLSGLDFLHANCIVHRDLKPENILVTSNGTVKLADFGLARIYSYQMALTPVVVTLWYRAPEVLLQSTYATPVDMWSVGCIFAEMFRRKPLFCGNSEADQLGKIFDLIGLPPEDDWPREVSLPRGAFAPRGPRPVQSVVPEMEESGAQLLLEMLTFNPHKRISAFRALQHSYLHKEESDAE
- Sequence (P11499 whole entry, other chains not shown): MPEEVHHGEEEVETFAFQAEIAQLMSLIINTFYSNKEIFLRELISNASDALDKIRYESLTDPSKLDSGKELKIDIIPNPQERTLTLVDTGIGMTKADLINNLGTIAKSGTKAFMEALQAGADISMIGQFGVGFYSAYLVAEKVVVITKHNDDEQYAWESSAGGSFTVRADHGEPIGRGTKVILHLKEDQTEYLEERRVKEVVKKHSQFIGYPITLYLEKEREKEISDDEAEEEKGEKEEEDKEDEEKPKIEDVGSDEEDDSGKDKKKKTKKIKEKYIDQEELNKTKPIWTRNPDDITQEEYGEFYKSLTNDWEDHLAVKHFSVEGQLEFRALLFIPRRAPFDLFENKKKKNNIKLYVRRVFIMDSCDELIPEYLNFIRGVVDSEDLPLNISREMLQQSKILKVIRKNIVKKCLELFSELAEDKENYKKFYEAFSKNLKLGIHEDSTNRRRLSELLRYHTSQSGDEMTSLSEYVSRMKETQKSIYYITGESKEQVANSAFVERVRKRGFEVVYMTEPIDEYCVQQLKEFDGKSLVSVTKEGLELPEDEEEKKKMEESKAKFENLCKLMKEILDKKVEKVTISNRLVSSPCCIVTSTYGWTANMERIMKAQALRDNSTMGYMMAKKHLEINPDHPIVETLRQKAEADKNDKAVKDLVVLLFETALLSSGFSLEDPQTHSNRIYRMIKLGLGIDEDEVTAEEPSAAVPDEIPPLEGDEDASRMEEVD
- experimentalProtocol: HEMTAC activity at HSP90/CDK4 in mouse B16-F10 cells assessed as induction of CDK4 degradation incubated for 24 hrs by Western blot analysis
pEC50 values for the compounds below.
For clarity, pEC50 is expressed as the negative log10 of concentration in mol/L.

{"smilesEntry": "COc1c(C)cnc(Cn2cc(C#CCCn3cc(C(=O)NCCNC(=O)CN4CCN(c5ccc(Nc6ncc7c(C)c(C(C)=O)c(=O)n(C8CCCC8)c7n6)nc5)CC4)nn3)c3c(Cl)nc(N)nc32)c1C", "metricName": "pEC50", "numericValue": 6.35}

Data request: What does the data say about its pEC50? Entry: COc1c(C)cnc(Cn2cc(C#CCCn3cc(CNC(=O)CN4CCN(c5ccc(Nc6ncc7c(C)c(C(C)=O)c(=O)n(C8CCCC8)c7n6)nc5)CC4)nn3)c3c(Cl)nc(N)nc32)c1C
Data returned: 7.59

Data request: What does the data say about its pEC50? Entry: COc1c(C)cnc(Cn2cc(C#CCCn3cc(C(=O)NCCOCCOCCNC(=O)CN4CCN(c5ccc(Nc6ncc7c(C)c(C(C)=O)c(=O)n(C8CCCC8)c7n6)nc5)CC4)nn3)c3c(Cl)nc(N)nc32)c1C
Data returned: 6.57

Data request: What does the data say about its pEC50? Entry: COc1c(C)cnc(Cn2cc(C#CCCn3cc(C(=O)N4CCN(c5ccc(Nc6ncc7c(C)c(C(C)=O)c(=O)n(C8CCCC8)c7n6)nc5)CC4)nn3)c3c(Cl)nc(N)nc32)c1C
Data returned: 6.96

Data request: What does the data say about its pEC50? Entry: COc1c(C)cnc(Cn2cc(C#CCCNC(=O)CN3CCN(c4ccc(Nc5ncc6c(C)c(C(C)=O)c(=O)n(C7CCCC7)c6n5)nc4)CC3)c3c(Cl)nc(N)nc32)c1C
Data returned: 7.02
